Target: CCR10 (Homo sapiens, UniProt P46092)
Construct: purchased Promega (in-house HiBiT-GPCR construct library, NanoBRET)
Sequence (P46092 1-362): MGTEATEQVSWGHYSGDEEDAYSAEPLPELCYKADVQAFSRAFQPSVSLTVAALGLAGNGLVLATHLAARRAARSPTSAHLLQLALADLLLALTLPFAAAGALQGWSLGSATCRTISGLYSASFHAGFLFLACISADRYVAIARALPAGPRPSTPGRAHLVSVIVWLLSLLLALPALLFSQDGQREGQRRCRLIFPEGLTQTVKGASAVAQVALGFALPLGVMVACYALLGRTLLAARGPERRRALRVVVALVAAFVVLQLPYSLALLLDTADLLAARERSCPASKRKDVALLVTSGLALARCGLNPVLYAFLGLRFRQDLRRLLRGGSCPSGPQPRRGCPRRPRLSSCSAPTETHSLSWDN
Assay: NanoBRET screen HiBiT-CCR10 in HEK293
Type: binding
Details: CCR10; tracer 1μM
Experimental: Each tracer candidate was screened across the entire library of HiBiT-GPCR constructs using NanoBRET as the detection modality. As depicted in Figure 4A, the specificity of interactions was evaluated through decrease in BRET due to competitive displacement of a bound tracer by excess parental compound. Each tracer was analyzed for binding to each HiBiT-GPCR fusion in the absence and in the presence of competing parental compound. […]
Please use YES whenever NanoBRET Fold Response is not below 1, and NO whenever it is.

{"columns": ["MOLECULE", "ASSIGNED LABEL"],
 "data": [
  ["CC(C)N(CC[C@H](c1ccccc1)c1cc(CCNC(=O)CCOCCOCCOCCOCCNC(=O)CCc2ccc3n2[B-](F)(F)[N+]2=C(c4ccc[nH]4)C=CC2=C3)ccc1O)C(C)C [Tolterodine-2-NB590]", "NO"],
  ["Cc1cc2c(s1)Nc1ccccc1N=C2N1CCN(CCCNC(=O)CCOCCOCCOCCOCCNC(=O)CCc2ccc3n2[B-](F)(F)[N+]2=C(c4ccc[nH]4)C=CC2=C3)CC1 [Olanzapine-a-2-NB590]", "NO"],
  ["CCCn1c(=O)c2[nH]c(-c3ccc(OCC(=O)NCCNC(=O)CCOCCNC(=O)c4ccc(CNC(=O)CCc5ccc6n5[B-](F)(F)[N+]5=C(c7ccc[nH]7)C=CC5=C6)cc4)cc3)nc2n(CCC)c1=O [XAC-3-NB590]", "NO"],
  ["CC(C)N(CC[C@H](c1ccccc1)c1cc(CCNC(=O)c2ccc(CNC(=O)CCc3ccc4n3[B-](F)(F)[N+]3=C(c5ccc[nH]5)C=CC3=C4)cc2)ccc1O)C(C)C [Tolterodine-BZ-NB590]", "YES"]
]}
